Items are presented alongside their recorded GI50.
System: NCI-H1048 cells
measurementDescription: MTT proliferation assay, NCI-H1048;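 note: Dose-response in 96-well plates over 8 or 10 concentration points, with exposure spanning 3-4 cell doublings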
Type: cell-based
conditionParameters: 5 days compound exposure, 1:3 serial dilution starting at 10 μM
*1 amine or outer side, *2 acyl side, *3 side chain or, on linkers, in order; H or OH if unused. Where a SMILES comes first, the peptide text is derived from it. Bridges are numbered along the chain shown (N, C = ends). [ ]: non-standard residue; d: D form. The star is where a group is joined. NMePhe(2-(4-MorPh),5-Cl) = CN[C@@H](Cc1cc(Cl)ccc1-c1ccc(N2CCOCC2)cc1)C(=O)O; X181 = CN([C@@H](Cc1cc(Cl)ccc1C1=CCN(C(=O)C2CC2)CC1)C(=O)[*:2])[*:1]; NMeAla(5-Cl-2-cPrO-3-pyridyl) = CN[C@@H](Cc1cc(Cl)cnc1OC1CC1)C(=O)O; X55 = CN([C@@H](Cc1cc(Cl)ccc1-c1cnn(CCN2CCOCC2)c1)C(=O)[*:2])[*:1]; X111 = CN([C@@H](Cc1cc(Cl)ccc1-c1nnc(C2CC2)o1)C(=O)[*:2])[*:1]; X68 = CN([C@@H](Cc1cc(Cl)ccc1-c1cnn(C2CC2)c1)C(=O)[*:2])[*:1]; X14 = Cc1nc(C)c(-c2ccc(Cl)cc2C[C@@H](C(=O)[*:2])N(C)[*:1])s1; NMehhhLys(Me) = CN([C@@H](CCCCCCCN(C)[*:3])C(=O)[*:2])[*:1]; Spiro(3.3)heptane2CO(2-CF3) = O=C(C1(C(F)(F)F)CC2(CCC2)C1)*; X22 = CN([C@@H](Cc1cc(Cl)ccc1-c1cnn(C)c1)C(=O)[*:2])[*:1]; NMe(hhhLys) = CN([C@@H](CCCCCCCN[*:3])C(=O)[*:2])[*:1]; Cyclobutanecarbonyl(1-CF3) = O=C(C1(C(F)(F)F)CCC1)*; cBuCO(3,3-F2-1-CF3) = O=C(C1(C(F)(F)F)CC(F)(F)C1)*; X182 = N#Cc1ccc(CC[C@H](N[*:1])C(=O)[*:2])cn1; Pro(trans-4-F) = O=C(O)[C@@H]1C[C@@H](F)CN1; Gly(cPr) = N[C@H](C(=O)O)C1CC1
Please reply with the bare figure in nM and do not write the unit itself.

compound	GI50 / nM
CC(C)C[C@@H]1NC(=O)[C@@H](N(C)C(=O)[C@@H](NC(=O)[C@@H]2C[C@@H](F)CN2C(=O)C2(C(F)(F)F)CCC2)C2CC2)CCCCCCCNC(=O)[C@H](Cc2cc(Cl)cnc2OC2CC2)N(C)C1=O [Example 108] ({Cyclobutanecarbonyl(1-CF3)}-[Pro(trans-4-F)][Gly(cPr)][NMe(hhhLys)]L[NMeAla(5-Cl-2-cPrO-3-pyridyl)]; lactam 3-C)	20
CC(C)C[C@@H]1NC(=O)[C@@H](N(C)C(=O)[C@@H](NC(=O)[C@@H]2C[C@@H](F)CN2C(=O)C2(C(F)(F)F)CC3(CCC3)C2)C2CC2)CCCCCCCN(C)C(=O)[C@H](Cc2cc(Cl)ccc2-c2cnn(C)c2)N(C)C1=O [Example 203] ({Spiro(3.3)heptane2CO(2-CF3)}-[Pro(trans-4-F)][Gly(cPr)][NMehhhLys(Me)]L[X22]; lactam 3-C)	60
Cc1nc(C)c(-c2ccc(Cl)cc2C[C@H]2C(=O)N(C)CCCCCCC[C@H](N(C)C(=O)[C@@H](NC(=O)[C@@H]3C[C@@H](F)CN3C(=O)C3(C(F)(F)F)CC(F)(F)C3)C3CC3)C(=O)N[C@@H](CC(C)C)C(=O)N2C)s1 [Example 207] ({cBuCO(3,3-F2-1-CF3)}-[Pro(trans-4-F)][Gly(cPr)][NMehhhLys(Me)]L[X14]; lactam 3-C)	30
CC(=O)N1[C@H]2CC[C@@H]1C=C(c1ccc(Cl)cc1C[C@H]1C(=O)N(C)CCCCCCC[C@H](N(C)C(=O)[C@@H](NC(=O)[C@@H]3C[C@@H](F)CN3C(=O)C3(C(F)(F)F)CC(F)(F)C3)C3CC3)C(=O)N[C@@H](CC(C)C)C(=O)N1C)C2 (single isomer, unassigned) [Example 57-P2]	10

Exercise: Return GI50 for the following compound: CC(C)C[C@@H]1NC(=O)[C@@H](N(C)C(=O)[C@@H](NC(=O)[C@@H]2C[C@@H](F)CN2C(=O)C2(C(F)(F)F)CC(F)(F)C2)C2CC2)CC=CCCCCNC(=O)[C@H](Cc2cc(Cl)cnc2OC2CC2)N(C)C1=O [Example 129]
Key: 1460

Exercise: Indicate the recorded GI50 value for this compound: CC(C)C[C@@H]1NC(=O)[C@@H](N(C)C(=O)[C@@H](NC(=O)[C@@H]2C[C@@H](F)CN2C(=O)C2(C(F)(F)F)CCC2)C2CC2)CCCCCCCNC(=O)[C@H](Cc2cc(Cl)ccc2-c2cnn(C3CC3)c2)N(C)C1=O [Example 188] ({Cyclobutanecarbonyl(1-CF3)}-[Pro(trans-4-F)][Gly(cPr)][NMe(hhhLys)]L[X68]; lactam 3-C)
Key: 10

Exercise: Retrieve GI50 measured for CC(C)C[C@@H]1NC(=O)[C@@H](N(C)C(=O)[C@@H](NC(=O)[C@@H]2C[C@@H](F)CN2C(=O)C2(C(F)(F)F)CC(F)(F)C2)C2CC2)CCCCCCCN(C)C(=O)[C@H](Cc2cc(Cl)ccc2-c2nnc(C3CC3)o2)N(C)C1=O [Example 240] ({cBuCO(3,3-F2-1-CF3)}-[Pro(trans-4-F)][Gly(cPr)][NMehhhLys(Me)]L[X111]; lactam 3-C) and print it.
Key: 10

Exercise: Return GI50 (reported value) for this compound: CC(C)C[C@@H]1NC(=O)[C@@H](N(C)C(=O)[C@H](CCc2ccc(C#N)nc2)NC(=O)[C@@H]2C[C@@H](F)CN2C(=O)C2(C(F)(F)F)CC(F)(F)C2)CCCCCCCN(C)C(=O)[C@H](Cc2cc(Cl)ccc2-c2ccc(N3CCOCC3)cc2)N(C)C1=O [Example 416] ({cBuCO(3,3-F2-1-CF3)}-[Pro(trans-4-F)][X182][NMehhhLys(Me)]L[NMePhe(2-(4-MorPh),5-Cl)]; lactam 3-C)
Key: 30

Exercise: Report measured GI50; entry is CC(C)C[C@@H]1NC(=O)[C@@H](NC(=O)[C@@H](NC(=O)[C@@H]2C[C@@H](F)CN2C(=O)C2(C(F)(F)F)CC(F)(F)C2)C2CC2)CC=CCCCCN(C)C(=O)[C@H](Cc2cc(Cl)ccc2Cl)N(C)C1=O
Key: 30

Exercise: Hello, please tell me recorded GI50 for this one: CCN(C(=O)[C@@H](NC(=O)[C@@H]1C[C@@H](F)CN1C(=O)C1(C(F)(F)F)CC(F)(F)C1)C1CC1)[C@H]1CCCCCCCN(C)C(=O)[C@H](Cc2cc(Cl)cnc2OC2CC2)N(C)C(=O)[C@H](CC(C)C)NC1=O
Key: 40

Exercise: Check the records and state GI50 for CC(C)C[C@@H]1NC(=O)[C@@H](N(C)C(=O)[C@@H](NC(=O)[C@@H]2C[C@@H](F)CN2C(=O)C2(C(F)(F)F)CC(F)(F)C2)C2CC2)CCCCCCCNC(=O)[C@H](Cc2cc(Cl)ccc2C2=CCN(C(=O)C3CC3)CC2)N(C)C1=O [Example 97] ({cBuCO(3,3-F2-1-CF3)}-[Pro(trans-4-F)][Gly(cPr)][NMe(hhhLys)]L[X181]; lactam 3-C)
Key: 20

Exercise: Provide one value: measured GI50 of CC(C)C[C@@H]1NC(=O)[C@@H](N(C)C(=O)[C@@H](NC(=O)[C@@H]2C[C@@H](F)CN2C(=O)C2(C(F)(F)F)CC(F)(F)C2)C2CC2)CCCCCCCN(C)C(=O)[C@H](Cc2cc(Cl)ccc2-c2cnn(CCN3CCOCC3)c2)N(C)C1=O [Example 256] ({cBuCO(3,3-F2-1-CF3)}-[Pro(trans-4-F)][Gly(cPr)][NMehhhLys(Me)]L[X55]; lactam 3-C)
Key: 10
